What log10 of IC50 was measured for each of the following?
Tested on: HT-29
MEASUREMENT NOTES: Antiproliferative activity against human HT-29 cells assessed as reduction in cell viability after 48 hrs by MTT assay
Type: functional, cell-based
ASSAY CONDITIONS: HT-29, 48 h
All values: log10 IC50 [µM].

The compound listed as C#CCOC(=O)/C(C)=C/CC/C(C)=C/CC/C(C)=C/CC[C@@H]1[C@@]2(C)CCC(=O)C(C)(C)[C@H]2CC[C@@]1(C)O has a reported log10 of IC50 of 1.44

The compound listed as C/C(=C\CC/C(C)=C/CC[C@@H]1[C@@]2(C)CCC(=O)C(C)(C)[C@H]2CC[C@@]1(C)O)CC/C=C(\C)C(=O)OCc1cn(C[C@@H]2O[C@H](n3ccc(=O)[nH]c3=O)C[C@H]2O)nn1 has a reported log10 of IC50 of 1.53

The compound listed as C/C(=C\CC/C(C)=C/CC[C@@H]1[C@@]2(C)CCC(=O)C(C)(C)[C@H]2CC[C@@]1(C)O)CC/C=C(\C)C(=O)OCc1cn(-c2cccc(O)c2)nn1 has a reported log10 of IC50 of 1.59

The compound listed as C/C(=C\CC/C(C)=C/CC[C@@H]1[C@@]2(C)CCC(=O)C(C)(C)[C@H]2CC[C@@]1(C)O)CC/C=C(\C)C(=O)OCc1cn([C@@H]2C[C@@H](n3cc(C)c(=O)[nH]c3=O)O[C@H]2CO)nn1 has a reported log10 of IC50 of 1.75

The compound listed as C/C(=C\CC/C(C)=C/CC[C@@H]1[C@@]2(C)CCC(=O)C(C)(C)[C@H]2CC[C@@]1(C)O)CC/C=C(\C)C(=O)O has a reported log10 of IC50 of 1.75

The compound listed as COc1cccc2c1C(=O)c1c(O)c3c(c(O)c1C2=O)C[C@@](O)(C(=O)CO)C[C@@H]3O[C@H]1C[C@H](N)[C@H](O)[C@H](C)O1 has a reported log10 of IC50 of -1.09

====

MEASUREMENT NOTES: Inhibition of Saccharomyces cerevisiae alpha-glucosidase using p-nitophenyl alpha […]D-glucoside incubated for 45 mins
What IC50 was measured for each of the following?
Output spec: scalar in µM, unitless text.

The compound listed as C/C(=C\CC/C(C)=C/CC[C@@H]1[C@@]2(C)CCC(=O)C(C)(C)[C@H]2CC[C@@]1(C)O)CC/C=C(\C)C(=O)OCc1cn(-c2ccc(C(C)(C)C)cc2)nn1 has a reported IC50 of 12.6

The compound listed as C[C@H]1O[C@H](O[C@H]2[C@H](O)[C@@H](O)[C@@H](O[C@H]3[C@H](O)[C@@H](O)C(O)O[C@@H]3CO)O[C@@H]2CO)[C@H](O)[C@@H](O)[C@@H]1N[C@H]1C=C(CO)[C@@H](O)[C@H](O)[C@H]1O (stereo not given in full) [ACARBOSE] has a reported IC50 of 2120

The compound listed as C/C(=C\CC/C(C)=C/CC[C@@H]1[C@@]2(C)CCC(=O)C(C)(C)[C@H]2CC[C@@]1(C)O)CC/C=C(\C)C(=O)OCc1cn(-c2cccc(O)c2)nn1 has a reported IC50 of 14.2

The compound listed as C/C(=C\CC/C(C)=C/CC[C@@H]1[C@@]2(C)CCC(=O)C(C)(C)[C@H]2CC[C@@]1(C)O)CC/C=C(\C)C(=O)OCc1cn(-c2ccc(Br)cc2)nn1 has a reported IC50 of 11.3

The compound listed as C/C(=C\CC/C(C)=C/CC[C@@H]1[C@@]2(C)CCC(=O)C(C)(C)[C@H]2CC[C@@]1(C)O)CC/C=C(\C)C(=O)OCc1cn(-c2cccc(Cl)c2)nn1 has a reported IC50 of 7.91
